System: 521955-158-R2-J5-PDC complex spheroid viability
Measurement protocol: Anticancer human tumor 521955-158-R2-J5-PDC patient-derived pancreatic carcinoma cell line growth inhibition; active = viability on the fitted dose curve at most 10% of control; inactive = the rest
Condition notes: second compound 0.316 µM; first compound 0.00949 µM
Outcome (select one): active, inactive

Check out these entries, answers already filled in.
Compound	Label value
CCc1c2c(nc3ccc(O)cc13)-c1cc3c(c(=O)n1C2)COC(=O)[C@]3(O)CC + NC1CCC(NC2CC2c2ccccc2)CC1	active
Nc1ccn(C2OC(CO)C(O)C2(F)F)c(=O)n1 (stereo unspecified) + NC1CCC(NC2CC2c2ccccc2)CC1	inactive
Nc1ccccc1NC(=O)c1ccc(CNC(=O)OCc2cccnc2)cc1 + NC1CCC(NC2CC2c2ccccc2)CC1	inactive
NS(=O)(=O)OCC1CC(n2ccc3c(NC4CCc5ccccc54)ncnc32)CC1O (stereo unspecified) + NC1CC1c1ccc(-c2cccc(O)c2)cc1	inactive
CCc1c2c(nc3ccc(O)cc13)-c1cc3c(c(=O)n1C2)COC(=O)[C@]3(O)CC + NC1CC1c1ccc(-c2cccc(O)c2)cc1	active
NS(=O)(=O)OCC1CC(n2ccc3c(NC4CCc5ccccc54)ncnc32)CC1O (stereo unspecified) + NC1CCC(NC2CC2c2ccccc2)CC1	inactive
Nc1ccccc1NC(=O)c1ccc(CNC(=O)OCc2cccnc2)cc1 + NC1CC1c1ccc(-c2cccc(O)c2)cc1	inactive
CCN(c1cc(-c2ccc(CN3CCOCC3)cc2)cc(C(=O)NCc2c(C)cc(C)[nH]c2=O)c1C)C1CCOCC1 + NC1CC1c1ccc(-c2cccc(O)c2)cc1	inactive

How did this test come out for Nc1ccn(C2OC(CO)C(O)C2(F)F)c(=O)n1 (stereo unspecified) + NC1CC1c1ccc(-c2cccc(O)c2)cc1 ?
inactive

How did this test come out for O=C(C=Cc1cccc(S(=O)(=O)Nc2ccccc2)c1)NO + NC1CCC(NC2CC2c2ccccc2)CC1 ?
inactive

How did this test come out for COc1cc(C2c3cc4c(cc3C(OC3OC5COC(C)OC5C(O)C3O)C3COC(=O)C23)OCO4)cc(OC)c1O (stereo unspecified) + NC1CCC(NC2CC2c2ccccc2)CC1 ?
inactive

How did this test come out for CCN(c1cc(-c2ccc(CN3CCOCC3)cc2)cc(C(=O)NCc2c(C)cc(C)[nH]c2=O)c1C)C1CCOCC1 + NC1CCC(NC2CC2c2ccccc2)CC1 ?
inactive

---

Tested on: 521955-158-R2-J5-PDC complex spheroid viability
Measurement protocol: Anticancer human tumor 521955-158-R2-J5-PDC cell line growth inhibition; active = viability on the fitted dose curve at most 10% of control; inactive = the rest;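 note: spheroids exposed to agents for seven days; percent of DMSO vehicle control luminescence viability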
Condition notes: second compound 0.316 µM; first compound 0.0949 µM
Excerpt: Multicellular complex tumor spheroid response to LSD1 Inhibitor Iadademstat in combination with a variety of drugs and investigational agents in selected tumor cell lines The current study was undertaken to assess response to LSD1 inhibitors in combination with standard-of-care drugs and investigational agents in solid tumor complex spheroid models as well as in the K-562 leukemia. […] Compounds. […] If the clinical Cmax for an agent had not been determined, the highest concentration tested was 10 microM. […]
Outcome (select one): 1 (yes) for active, 0 (no) for inactive

Check out these entries, answers already filled in.
Compound	Label value
Nc1ccn(C2OC(CO)C(O)C2(F)F)c(=O)n1 (stereo unspecified) + NC1CC1c1ccc(-c2cccc(O)c2)cc1	0 (no)
NS(=O)(=O)OCC1CC(n2ccc3c(NC4CCc5ccccc54)ncnc32)CC1O (stereo unspecified) + NC1CCC(NC2CC2c2ccccc2)CC1	0 (no)
Nc1ccn(C2OC(CO)C(O)C2(F)F)c(=O)n1 (stereo unspecified) + NC1CCC(NC2CC2c2ccccc2)CC1	0 (no)
CCc1c2c(nc3ccc(O)cc13)-c1cc3c(c(=O)n1C2)COC(=O)[C@]3(O)CC + NC1CC1c1ccc(-c2cccc(O)c2)cc1	1 (yes)

How did this test come out for COc1cc(C2c3cc4c(cc3C(OC3OC5COC(C)OC5C(O)C3O)C3COC(=O)C23)OCO4)cc(OC)c1O (stereo unspecified) + NC1CCC(NC2CC2c2ccccc2)CC1 ?
0 (no)

How did this test come out for CCN(c1cc(-c2ccc(CN3CCOCC3)cc2)cc(C(=O)NCc2c(C)cc(C)[nH]c2=O)c1C)C1CCOCC1 + NC1CC1c1ccc(-c2cccc(O)c2)cc1 ?
0 (no)

How did this test come out for Nc1ccccc1NC(=O)c1ccc(CNC(=O)OCc2cccnc2)cc1 + NC1CCC(NC2CC2c2ccccc2)CC1 ?
0 (no)

How did this test come out for NS(=O)(=O)OCC1CC(n2ccc3c(NC4CCc5ccccc54)ncnc32)CC1O (stereo unspecified) + NC1CC1c1ccc(-c2cccc(O)c2)cc1 ?
0 (no)

How did this test come out for CCN(c1cc(-c2ccc(CN3CCOCC3)cc2)cc(C(=O)NCc2c(C)cc(C)[nH]c2=O)c1C)C1CCOCC1 + NC1CCC(NC2CC2c2ccccc2)CC1 ?
0 (no)

How did this test come out for Nc1ccccc1NC(=O)c1ccc(CNC(=O)OCc2cccnc2)cc1 + NC1CC1c1ccc(-c2cccc(O)c2)cc1 ?
0 (no)

How did this test come out for CCc1c2c(nc3ccc(O)cc13)-c1cc3c(c(=O)n1C2)COC(=O)[C@]3(O)CC + NC1CCC(NC2CC2c2ccccc2)CC1 ?
1 (yes)

How did this test come out for Nc1ncn(C2CC(O)C(CO)S2)c(=O)n1 (stereo unspecified) + NC1CCC(NC2CC2c2ccccc2)CC1 ?
0 (no)

How did this test come out for O=C(C=Cc1cccc(S(=O)(=O)Nc2ccccc2)c1)NO + NC1CCC(NC2CC2c2ccccc2)CC1 ?
0 (no)

How did this test come out for O=C(C=Cc1cccc(S(=O)(=O)Nc2ccccc2)c1)NO + NC1CC1c1ccc(-c2cccc(O)c2)cc1 ?
0 (no)

How did this test come out for COc1cc(C2c3cc4c(cc3C(OC3OC5COC(C)OC5C(O)C3O)C3COC(=O)C23)OCO4)cc(OC)c1O (stereo unspecified) + NC1CC1c1ccc(-c2cccc(O)c2)cc1 ?
0 (no)

How did this test come out for Nc1ncn(C2CC(O)C(CO)S2)c(=O)n1 (stereo unspecified) + NC1CC1c1ccc(-c2cccc(O)c2)cc1 ?
0 (no)
